B1: ZNF263 (parent)
chain: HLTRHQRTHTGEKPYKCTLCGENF

Variants of: B1
EXPERIMENT_NOTES: protein stability index of a GFP-peptide fusion (GPS, HEK-293T) (PSI 1-6); higher = more stable;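 also: lentivirally expressed fusions sorted by FACS into six bins by GFP to DsRed ratio, PSI derived from sequencing read proportions per bin multiplied by bin number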
DETAILS: c terminus: a fixed tail appended
Threshold check on protein stability index: at or above 3 gives met, strictly below gives not met.

INSERT INTO results (seq_text, discrete_label) VALUES
  ('HLDRHQRTHTGEKPYKCTLCGENF [T3D]', 'met'),
  ('HLTRHQRTHTGEKPYRCTLCGENF [K16R]', 'not met'),
  ('HLTRHQRTHTGTKPYKCTLCGENF [E12T]', 'not met'),
  ('HLTRHQRTHTGEKPYKCTLCGENN [F24N]', 'met'),
  ('PLTRHQRTHTGEKPYKCTLCGENF [H1P]', 'met'),
  ('HLTRHQRTHTGEKPYKCTLCDENF [G21D]', 'met'),
  ('HLTRHQRTHTGEKGYKCTLCGENF [P14G]', 'met'),
  ('HLTRHQRTHTGEKPYKCTLCHENF [G21H]', 'met'),
  ('HLTRHQRTCTGEKPYKCTLCGENF [H9C]', 'not met'),
  ('HLTRHQRTHTGEKPYKCRLCGENF [T18R]', 'not met'),
  ('HLTVHQRTHTGEKPYKCTLCGENF [R4V]', 'met'),
  ('HLTRHQRWHTGEKPYKCTLCGENF [T8W]', 'not met'),
  ('HRTRHQRTHTGEKPYKCTLCGENF [L2R]', 'not met'),
  ('HLLRHQRTHTGEKPYKCTLCGENF [T3L]', 'not met'),
  ('HLTHHQRTHTGEKPYKCTLCGENF [R4H]', 'met'),
  ('HLTRHQRTHTGENPYKCTLCGENF [K13N]', 'met'),
  ('HLTRHQRTHTGEKPYKCTLCGEPF [N23P]', 'not met'),
  ('HLTRHQRTHTGEKPMKCTLCGENF [Y15M]', 'met'),
  ('HLTRHQRTHTGAKPYKCTLCGENF [E12A]', 'met'),
  ('HLTRHQRTHTGEKPYKCTLCGINF [E22I]', 'not met'),
  ('HLTRHQRTHTGEKPYKCTLCGDNF [E22D]', 'met'),
  ('HLTRCQRTHTGEKPYKCTLCGENF [H5C]', 'met'),
  ('HFTRHQRTHTGEKPYKCTLCGENF [L2F]', 'not met'),
  ('HLCRHQRTHTGEKPYKCTLCGENF [T3C]', 'met'),
  ('HGTRHQRTHTGEKPYKCTLCGENF [L2G]', 'met'),
  ('HLTRHQRTHTGEKPVKCTLCGENF [Y15V]', 'met'),
  ('HLSRHQRTHTGEKPYKCTLCGENF [T3S]', 'not met'),
  ('HLTRHQRYHTGEKPYKCTLCGENF [T8Y]', 'not met'),
  ('HLTRHQRTHTGEKSYKCTLCGENF [P14S]', 'not met'),
  ('HLTRHSRTHTGEKPYKCTLCGENF [Q6S]', 'met'),
  ('HLTRHQRTHTGEKPYKCTLCIENF [G21I]', 'not met'),
  ('WLTRHQRTHTGEKPYKCTLCGENF [H1W]', 'not met');

meta.source: the supplement of paper PMC10567573
